Reference source: ChEMBL document CHEMBL1141655

targetOfAssay: Bcl-2-like protein 1 (Homo sapiens)
Sequence (Q07817 whole entry): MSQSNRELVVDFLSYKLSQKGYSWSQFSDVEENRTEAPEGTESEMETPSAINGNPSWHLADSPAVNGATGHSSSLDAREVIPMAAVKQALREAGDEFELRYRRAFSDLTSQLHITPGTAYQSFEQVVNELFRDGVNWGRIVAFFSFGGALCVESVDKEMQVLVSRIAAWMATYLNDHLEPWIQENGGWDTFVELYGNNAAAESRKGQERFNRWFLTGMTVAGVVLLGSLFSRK
assayExplanation: Binding affinity to recombinant Bcl-XL expressed in Escherichia coli BL21 by fluorescence polarization assay
attributeMeasured: EC50 (µM)
The reply should be a number in µM, with the unit left off.

Solved entries:
The compound identified as CC[C@H](C)[C@H](NC(=O)[C@H](C)NC(=O)[C@H](CC(C)C)NC(=O)[C@H](CCC(N)=O)NC(=O)[C@H](CCCNC(=N)N)NC(=O)CNC(=O)[C@@H](NC(=O)[C@H](CCC(N)=O)NC(=O)CN)C(C)C)C(=O)N[C@@H](Cc1ccc([N+](=O)[O-])cc1)C(=O)NCC(=O)N[C@@H](CC(=O)O)C(=O)N[C@@H](CC(=O)O)C(=O)N[C@H](C(=O)N[C@@H](CC(N)=O)C(=O)N[C@@H](CCCNC(=N)N)C(=O)O)[C@@H](C)CC registered its EC50 at 1.47

The compound identified as CC[C@H](C)[C@H](NC(=O)[C@H](C)NC(=O)[C@H](CC(C)C)NC(=O)[C@H](CCC(N)=O)NC(=O)[C@H](CCCN=C(N)N)NC(=O)CNC(=O)[C@@H](NC(=O)[C@H](CCC(N)=O)NC(=O)CN)C(C)C)C(=O)N[C@@H](Cc1cccc(Cl)c1)C(=O)NCC(=O)N[C@@H](CC(=O)O)C(=O)N[C@@H](CC(=O)O)C(=O)N[C@H](C(=O)N[C@@H](CC(N)=O)C(=O)N[C@@H](CCCN=C(N)N)C(=O)O)[C@@H](C)CC registered its EC50 at 0.2

New cases:
The compound identified as CC[C@H](C)[C@H](NC(=O)[C@H](C)NC(=O)[C@H](CC(C)C)NC(=O)[C@H](CCC(N)=O)NC(=O)[C@H](CCCNC(=N)N)NC(=O)CNC(=O)[C@H](Cc1ccc2ccccc2c1)NC(=O)[C@H](CCC(N)=O)NC(=O)CN)C(=O)N[C@H](C(=O)NCC(=O)N[C@@H](CC(=O)O)C(=O)N[C@@H](CC(=O)O)C(=O)N[C@H](C(=O)N[C@@H](CC(N)=O)C(=O)N[C@@H](CCCNC(=N)N)C(=O)O)[C@@H](C)CC)[C@@H](C)CC registered its EC50 at 0.35

The compound identified as CC[C@H](C)[C@H](NC(=O)[C@H](C)NC(=O)[C@H](CC(C)C)NC(=O)[C@H](CCC(N)=O)NC(=O)[C@H](CCCN=C(N)N)NC(=O)CNC(=O)[C@@H](NC(=O)[C@H](CCC(N)=O)NC(=O)CN)C(C)C)C(=O)N[C@H](C(=O)NCC(=O)N[C@@H](CC(=O)O)C(=O)N[C@@H](CC(=O)O)C(=O)N[C@@H](C)C(=O)N[C@@H](CC(N)=O)C(=O)N[C@@H](CCCN=C(N)N)C(=O)O)[C@@H](C)CC registered its EC50 at 93

* * *

This listing pairs compounds with measured Ratio EC50.
assayExplanation: Selectivity ratio of EC50 for recombinant Bcl-2 to EC50 for recombinant Bcl-XL
Output spec: single numeric token, no unit.

Solved entries:
The compound identified as CC[C@H](C)[C@H](NC(=O)[C@H](C)NC(=O)[C@H](CC(C)C)NC(=O)[C@H](CCC(N)=O)NC(=O)[C@H](CCCNC(=N)N)NC(=O)CNC(=O)[C@@H](NC(=O)[C@H](CCC(N)=O)NC(=O)CN)C(C)C)C(=O)N[C@H](C(=O)NCC(=O)N[C@@H](CC(=O)O)C(=O)N[C@@H](CC(=O)O)C(=O)N[C@@H](Cc1ccc(Cl)cc1)C(=O)N[C@@H](CC(N)=O)C(=O)N[C@@H](CCCNC(=N)N)C(=O)O)[C@@H](C)CC registered its Ratio EC50 at 30

The compound identified as CC[C@H](C)[C@H](NC(=O)[C@H](C)NC(=O)[C@H](Cc1ccc2ccccc2c1)NC(=O)[C@H](CCC(N)=O)NC(=O)[C@H](CCCNC(=N)N)NC(=O)CNC(=O)[C@@H](NC(=O)[C@H](CCC(N)=O)NC(=O)CN)C(C)C)C(=O)N[C@H](C(=O)NCC(=O)N[C@@H](CC(=O)O)C(=O)N[C@@H](CC(=O)O)C(=O)N[C@H](C(=O)N[C@@H](CC(N)=O)C(=O)N[C@@H](CCCNC(=N)N)C(=O)O)[C@@H](C)CC)[C@@H](C)CC registered its Ratio EC50 at 133

// switching to the query compound
The compound identified as CCCC[C@H](NC(=O)[C@H](CCC(N)=O)NC(=O)CN)C(=O)NCC(=O)N[C@@H](CCCNC(=N)N)C(=O)N[C@@H](CCC(N)=O)C(=O)N[C@@H](CC(C)C)C(=O)N[C@@H](C)C(=O)N[C@H](C(=O)N[C@H](C(=O)NCC(=O)N[C@@H](CC(=O)O)C(=O)N[C@@H](CC(=O)O)C(=O)N[C@H](C(=O)N[C@@H](CC(N)=O)C(=O)N[C@@H](CCCNC(=N)N)C(=O)O)[C@@H](C)CC)[C@@H](C)CC)[C@@H](C)CC registered its Ratio EC50 at 11

* * *

targetOfAssay: Bcl-2-like protein 1 (Homo sapiens)
assayExplanation: Binding affinity to recombinant Bcl-XL expressed in Escherichia coli BL21 by fluorescence polarization assay
This listing pairs molecules with measured pEC50.
Scale: negative log10 of molar concentration, which is what pEC50 denotes.

The molecule identified as CC[C@H](C)[C@H](NC(=O)[C@H](C)NC(=O)[C@H](CCc1ccccc1)NC(=O)[C@H](CCC(N)=O)NC(=O)[C@H](CCCNC(=N)N)NC(=O)CNC(=O)[C@@H](NC(=O)[C@H](CCC(N)=O)NC(=O)CN)C(C)C)C(=O)N[C@H](C(=O)NCC(=O)N[C@@H](CC(=O)O)C(=O)N[C@@H](CC(=O)O)C(=O)N[C@H](C(=O)N[C@@H](CC(N)=O)C(=O)N[C@@H](CCCNC(=N)N)C(=O)O)[C@@H](C)CC)[C@@H](C)CC registered its pEC50 at 6.65

The molecule identified as CC[C@H](C)[C@H](NC(=O)[C@H](C)NC(=O)[C@H](CC(C)C)NC(=O)[C@H](CCC(N)=O)NC(=O)[C@H](CCCN=C(N)N)NC(=O)CNC(=O)[C@@H](NC(=O)[C@H](CCC(N)=O)NC(=O)CN)C(C)C)C(=O)N[C@@H](Cc1ccc(-c2ccccc2)cc1)C(=O)NCC(=O)N[C@@H](CC(=O)O)C(=O)N[C@@H](CC(=O)O)C(=O)N[C@H](C(=O)N[C@@H](CC(N)=O)C(=O)N[C@@H](CCCN=C(N)N)C(=O)O)[C@@H](C)CC registered its pEC50 at 5.90

The molecule identified as CC[C@H](C)[C@H](NC(=O)[C@H](C)NC(=O)[C@H](Cc1ccccc1)NC(=O)[C@H](CCC(N)=O)NC(=O)[C@H](CCCN=C(N)N)NC(=O)CNC(=O)[C@@H](NC(=O)[C@H](CCC(N)=O)NC(=O)CN)C(C)C)C(=O)N[C@H](C(=O)NCC(=O)N[C@@H](CC(=O)O)C(=O)N[C@@H](CC(=O)O)C(=O)N[C@H](C(=O)N[C@@H](CC(N)=O)C(=O)N[C@@H](CCCN=C(N)N)C(=O)O)[C@@H](C)CC)[C@@H](C)CC registered its pEC50 at 6.39

The molecule identified as CC[C@H](C)[C@H](NC(=O)[C@H](C)NC(=O)[C@H](CC1CCCCC1)NC(=O)[C@H](CCC(N)=O)NC(=O)[C@H](CCCNC(=N)N)NC(=O)CNC(=O)[C@@H](NC(=O)[C@H](CCC(N)=O)NC(=O)CN)C(C)C)C(=O)N[C@H](C(=O)NCC(=O)N[C@@H](CC(=O)O)C(=O)N[C@@H](CC(=O)O)C(=O)N[C@H](C(=O)N[C@@H](CC(N)=O)C(=O)N[C@@H](CCCNC(=N)N)C(=O)O)[C@@H](C)CC)[C@@H](C)CC registered its pEC50 at 6.66

New cases:
The molecule identified as CC[C@H](C)[C@H](NC(=O)[C@H](C)NC(=O)[C@H](CCSC)NC(=O)[C@H](CCC(N)=O)NC(=O)[C@H](CCCN=C(N)N)NC(=O)CNC(=O)[C@@H](NC(=O)[C@H](CCC(N)=O)NC(=O)CN)C(C)C)C(=O)N[C@H](C(=O)NCC(=O)N[C@@H](CC(=O)O)C(=O)N[C@@H](CC(=O)O)C(=O)N[C@H](C(=O)N[C@@H](CC(N)=O)C(=O)N[C@@H](CCCN=C(N)N)C(=O)O)[C@@H](C)CC)[C@@H](C)CC registered its pEC50 at 5.84

The molecule identified as CCCC[C@H](NC(=O)[C@@H](NC(=O)[C@H](C)NC(=O)[C@H](CC(C)C)NC(=O)[C@H](CCC(N)=O)NC(=O)[C@H](CCCN=C(N)N)NC(=O)CNC(=O)[C@@H](NC(=O)[C@H](CCC(N)=O)NC(=O)CN)C(C)C)[C@@H](C)CC)C(=O)NCC(=O)N[C@@H](CC(=O)O)C(=O)N[C@@H](CC(=O)O)C(=O)N[C@H](C(=O)N[C@@H](CC(N)=O)C(=O)N[C@@H](CCCN=C(N)N)C(=O)O)[C@@H](C)CC registered its pEC50 at 6.18

The molecule identified as CC[C@H](C)[C@H](NC(=O)[C@H](C)NC(=O)[C@H](CC(C)C)NC(=O)[C@H](CCC(N)=O)NC(=O)[C@H](CCCNC(=N)N)NC(=O)CNC(=O)[C@@H](NC(=O)[C@H](CCC(N)=O)NC(=O)CN)C(C)C)C(=O)N[C@@H](Cc1c[nH]c2ccccc12)C(=O)NCC(=O)N[C@@H](CC(=O)O)C(=O)N[C@@H](CC(=O)O)C(=O)N[C@H](C(=O)N[C@@H](CC(N)=O)C(=O)N[C@@H](CCCNC(=N)N)C(=O)O)[C@@H](C)CC registered its pEC50 at 6.43

The molecule identified as CC[C@H](C)[C@H](NC(=O)[C@H](C)NC(=O)[C@H](CC(C)C)NC(=O)[C@H](CCC(N)=O)NC(=O)[C@H](CCCN=C(N)N)NC(=O)CNC(=O)[C@@H](NC(=O)[C@H](CCC(N)=O)NC(=O)CN)C(C)C)C(=O)N[C@@H](Cc1ccc2ccccc2c1)C(=O)NCC(=O)N[C@@H](CC(=O)O)C(=O)N[C@@H](CC(=O)O)C(=O)N[C@H](C(=O)N[C@@H](CC(N)=O)C(=O)N[C@@H](CCCN=C(N)N)C(=O)O)[C@@H](C)CC registered its pEC50 at 5.89

The molecule identified as CC[C@H](C)[C@H](NC(=O)[C@H](C)NC(=O)[C@H](CC(C)C)NC(=O)[C@H](CCC(N)=O)NC(=O)[C@H](CCCNC(=N)N)NC(=O)CNC(=O)[C@@H](NC(=O)[C@H](CCC(N)=O)NC(=O)CN)C(C)C)C(=O)N[C@H](C(=O)NCC(=O)N[C@@H](CC(=O)O)C(=O)N[C@@H](CC(=O)O)C(=O)N[C@@H](Cc1ccc([N+](=O)[O-])cc1)C(=O)N[C@@H](CC(N)=O)C(=O)N[C@@H](CCCNC(=N)N)C(=O)O)[C@@H](C)CC registered its pEC50 at 6.23

The molecule identified as CC[C@H](C)[C@H](NC(=O)[C@H](C)NC(=O)[C@H](C)NC(=O)[C@H](CCC(N)=O)NC(=O)[C@H](CCCN=C(N)N)NC(=O)CNC(=O)[C@@H](NC(=O)[C@H](CCC(N)=O)NC(=O)CN)C(C)C)C(=O)N[C@H](C(=O)NCC(=O)N[C@@H](CC(=O)O)C(=O)N[C@@H](CC(=O)O)C(=O)N[C@H](C(=O)N[C@@H](CC(N)=O)C(=O)N[C@@H](CCCN=C(N)N)C(=O)O)[C@@H](C)CC)[C@@H](C)CC registered its pEC50 at 3.57
